Values from PubChem BioAssay AID504660

studyTarget: D(1A) dopamine receptor (Homo sapiens)
procedureDetails: Allosteric Agonists of the Human D1 Dopamine Receptor: qHTS; further: 0% is about no effect
testParameters: HEK293 T-REx D1 cells, calcium flux, agonist mode; at 2 µM; active compounds read high
Out of some 360,000 compounds screened, about 3,700 (1%) were called active. The sample holds actives, similar compounds and a random draw of the others, so the mix is not that of the screen.
observationType: activation (%)

INSERT INTO measurements (compound, observationtype, assayresult) VALUES
  ('CCN1C(=O)c2ccccc2Sc2ccc(NC(=O)Cc3ccc(OC)cc3)cc21', 'activation', 8.31),
  ('Cc1ccc(Cl)cc1N1CCN(C(=O)c2cccn3c(=O)c4cc(Cl)ccc4nc23)CC1', 'activation', 2.28),
  ('O=C(/C=C/c1cn(CC(O)CN2CCc3ccccc32)c2ccccc12)c1ccc(Br)cc1 (configuration not stated)', 'activation', 11.4),
  ('O=C(c1ccc(Cl)cc1)n1cnc2ccccc21', 'activation', 1.83),
  ('CSCCC(NC(=O)COc1ccccc1)C(=O)OCCOc1ccc(F)cc1 (configuration not stated)', 'activation', 2.91),
  ('COc1cccc(C(=O)NC2(C(F)(F)F)C(=O)Nc3c2c(=O)[nH]c(=O)n3-c2ccc(C)cc2)c1 (configuration not stated)', 'activation', -0.234),
  ('COc1ccc(-c2onc3ccc(C(C)=O)cc23)cc1', 'activation', 68),
  ('CCn1cc(C(=O)N2CCN(c3cc(Cl)ccc3C)CC2)c(=O)c2cc(S(=O)(=O)N3CCCC3)ccc21', 'activation', -0.309),
  ('COc1cc(CN(C(=O)c2ccccc2Br)c2ccccn2)cc(OC)c1OC', 'activation', -2.08),
  ('CCOC(=O)c1oc2ccc(S(=O)(=O)n3nc(-c4ccccc4OC)cc3N)cc2c1C', 'activation', 4.93),
  ('Fc1ccccc1Cn1cnc(NC(=S)NCCc2ccccc2)n1', 'activation', 1.4),
  ('CC(C)c1ccc(NC(=O)Cn2c3ncccc3c(=O)n2-c2ccccc2)cc1', 'activation', 2.49),
  ('CCc1cccc(NC(=O)CN(c2ccc(C)c(C)c2)S(=O)(=O)c2ccsc2C(=O)OC)c1', 'activation', 3.48),
  ('O=C(CNC(=O)c1ccc(Cl)cc1Cl)OC(C(=O)Nc1cc(C(F)(F)F)ccc1Cl)c1ccccc1 (configuration not stated)', 'activation', 6.6),
  ('COc1cccc(-c2ccc3c(c2)S(=O)(=O)c2cccc(C(=O)O)c2C3=O)c1OC', 'activation', 0.629),
  ('CCc1cccc(NC(=O)c2cnc(N3CCOCC3)c3ccccc23)c1', 'activation', -0.292),
  ('O=c1c(-c2ccc(Cl)cc2)[n+]([O-])c2ccccc2n1OCc1nc2ccccc2[nH]1', 'activation', -0.955),
  ('Cc1ccc(-c2nnc3c4ccccc4c(C)nn23)cc1NC(=O)c1cccc(Br)c1', 'activation', -0.644),
  ('CCOc1ccc(C(=O)NC2CCN(C(=O)Nc3ccccc3OC)CC2)cc1', 'activation', 0.137),
  ('O=C(Cn1cnc2c(oc3ccccc32)c1=O)Nc1ccc(OC(F)(F)F)cc1', 'activation', 26.6),
  ('COc1cc(-c2cc3n(C)c(C)c(CCC(=O)Nc4ccc(F)cc4)c(=O)n3n2)cc(OC)c1OC', 'activation', 0.314),
  ('Cn1c(COc2ccccc2C(C)(C)C)nc2ccccc21', 'activation', 19.9),
  ('Cc1ccc(-c2nc3cccc(C)n3c2Nc2ccc3c(c2)OCCO3)cc1', 'activation', -0.166),
  ('CSc1ncc(Cl)c(C(=O)Nc2ccc(S(=O)(=O)N3CCCC(C)C3)cc2)n1 (configuration not stated)', 'activation', 3.25),
  ('CSCCC(NC(=O)COc1ccccc1)C(=O)OCCOc1ccc(Br)cc1 (configuration not stated)', 'activation', 30.8),
  ('CCc1ccccc1N1C(=O)CN(S(=O)(=O)CC)CC1(C)C(=O)NC1CCCCC1 (configuration not stated)', 'activation', 0.155),
  ('O=C(COC(=O)Cc1ccccc1F)NCCc1ccccc1', 'activation', 2.43),
  ('O=C(CCc1nc(CN2CCN(S(=O)(=O)c3ccc(Cl)cc3)CC2)no1)N1CCCCC1', 'activation', 12.7),
  ('Cc1ccc(Nc2c(-c3ccc(N(C)C)cc3)nc3nc[nH]n23)cc1', 'activation', 39.9),
  ('Cc1ccc(S(=O)(=O)N2CCCCC2)cc1NC(=O)c1cccnc1', 'activation', 4.22),
  ('Cc1ccc(C(=O)Nc2nc(-c3ccccc3)ns2)cc1', 'activation', -0.0471),
  ('CSCCC(NC(=O)COc1ccccc1)C(=O)OCC(=O)c1cc2ccccc2o1 (configuration not stated)', 'activation', 5.5),
  ('Cc1ccc(Cl)cc1N1CCN(C(=O)c2cccc3c(=O)c(C)c(-c4ccccc4)oc23)CC1', 'activation', 34.3),
  ('c1ccc(C2CNCc3c2ccc2ccccc32)cc1 (configuration not stated)', 'activation', 45.9),
  ('COc1ccc(C(=O)N2CCC(c3nc4ccccc4o3)CC2)cc1', 'activation', 0.0167),
  ('CSc1ccc(C2c3c(oc4ccccc4c3=O)C(=O)N2CCCN2CCOCC2)cc1 (configuration not stated)', 'activation', -1.33),
  ('Cc1ccc(Cl)cc1NC(=O)C(C)n1nnc2sc(-c3ccccc3)cc2c1=O (configuration not stated)', 'activation', -0.45),
  ('Cc1cccc(NC(=O)Cn2nc(-c3ccc(Cl)cc3)c3ccccc3c2=O)c1', 'activation', 35.9),
  ('Cc1cc(C)c(-c2n[nH]c3c2C(c2ccccc2F)N(CCO)C3=O)c(O)c1 (configuration not stated)', 'activation', -0.0969),
  ('Nc1nonc1-n1nnc(C(=O)N/N=C/c2ccc(Cl)cc2)c1-c1ccc2c(c1)OCO2', 'activation', 94.3),
  ('CCOc1ccc2nc(N3CCCN(C(=O)Nc4ccccc4C)CC3)c(C#N)cc2c1', 'activation', 32.7),
  ('O=C(Cc1nc2ccccc2[nH]c1=O)c1ccc(Cl)cc1', 'activation', 69.4);
